- ASSAY: Mouse pharmacokinetics
- Assay type: in vivo
- Parameters: concentration or dose not given beside the values
- MEASUREMENT_CONDITIONS: Balb/c male mice, blood samples 15 to 1140 min, LC-MS/MS
MEASURED_METRIC: AUC (ng·h/mL)
Write down the numeric answer in ng·h/mL and omit the unit.

Worked cases, AUC given:
- O=C(c1cc(Cc2n[nH]c(=O)c3ccccc23)ccc1F)N1CC(NC2CC2)C1: 3350
- CC(C)CNC1CN(C(=O)c2cc(Cc3n[nH]c(=O)c4ccccc34)ccc2F)C1: 2250
- CC(C)CNC1CN(C(=O)c2cc(Cc3n[nH]c(=O)c4ccccc34)ccc2F)C1.Cl: 1020
- O=C(c1cc(Cc2n[nH]c(=O)c3ccccc23)ccc1F)N1CC(NC2CCC2)C1: 831
- CCCCNC1CN(C(=O)c2cc(Cc3n[nH]c(=O)c4ccccc34)ccc2F)C1: 1250

Request: So what's the measured AUC for this one? O=C(c1cc(Cc2n[nH]c(=O)c3ccccc23)ccc1F)N1CC(CN2CCCC2)C1
Result: 295

Request: So what's the measured AUC for this one? O=C(c1cc(Cc2n[nH]c(=O)c3ccccc23)ccc1F)N1CC(NC2(C(F)(F)F)CC2)C1
Result: 2020

Request: So what's the measured AUC for this one? Cl.O=C(c1cc(Cc2n[nH]c(=O)c3ccccc23)ccc1F)N1CC(CNC2CC2)C1
Result: 673

Request: So what's the measured AUC for this one? O=C(c1cc(Cc2n[nH]c(=O)c3ccccc23)ccc1F)N1CC[C@@H](Nc2ncccn2)C1
Result: 510

Request: So what's the measured AUC for this one? O=C(c1cc(Cc2n[nH]c(=O)c3ccccc23)ccc1F)N1CC(NC2CCCC2)C1
Result: 472

Request: So what's the measured AUC for this one? CC(C)NC1CN(C(=O)c2cc(Cc3n[nH]c(=O)c4ccccc34)ccc2F)C1.Cl
Result: 472

Request: So what's the measured AUC for this one? O=C(c1cc(Cc2n[nH]c(=O)c3ccccc23)ccc1F)N1CC[C@@H](N2CCC2)C1
Result: 153

Request: So what's the measured AUC for this one? O=C(c1cc(Cc2n[nH]c(=O)c3ccccc23)ccc1F)N1CC(CN2CCC2)C1
Result: 88.8

Request: So what's the measured AUC for this one? Cl.O=C(c1cc(Cc2n[nH]c(=O)c3ccccc23)ccc1F)N1CC(NCC2CC2)C1
Result: 2250

Request: So what's the measured AUC for this one? COC[C@@H](C)NC1CN(C(=O)c2cc(Cc3n[nH]c(=O)c4ccccc34)ccc2F)C1
Result: 567

Request: So what's the measured AUC for this one? O=C(c1cc(Cc2n[nH]c(=O)c3ccccc23)ccc1F)N1CC(NCC2CC2)C1
Result: 1020

Numbers sourced from patent US9844550B2.
